Molecular target: human GIP receptor (Homo sapiens, UniProt P48546)
Construct: host or cells: COS-7 (transient, calcium phosphate; pCMV-Script vector)
Sequence (P48546 22-466): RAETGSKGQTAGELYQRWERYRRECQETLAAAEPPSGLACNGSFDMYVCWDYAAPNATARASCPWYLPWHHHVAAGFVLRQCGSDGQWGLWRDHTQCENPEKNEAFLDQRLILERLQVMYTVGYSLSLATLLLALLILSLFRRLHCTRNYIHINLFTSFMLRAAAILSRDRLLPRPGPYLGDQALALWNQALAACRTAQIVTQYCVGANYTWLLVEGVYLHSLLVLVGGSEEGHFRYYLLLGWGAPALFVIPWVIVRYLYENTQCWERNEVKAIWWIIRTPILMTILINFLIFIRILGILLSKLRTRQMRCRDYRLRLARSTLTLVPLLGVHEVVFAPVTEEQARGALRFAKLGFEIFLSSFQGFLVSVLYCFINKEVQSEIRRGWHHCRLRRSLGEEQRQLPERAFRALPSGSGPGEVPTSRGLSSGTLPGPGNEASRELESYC
Test: cAMP accumulation assay (HitHunter cAMP XS) in transiently transfected COS-7 cells expressing the human GIP receptor
Type: cell-based
Details: logEC50, GIP receptor, Table 2; log value; cAMP, COS-7
Ends that are not written are not given here.
Reported Metric: EC50 (nM)

(I) HADGTFISDYSKILDNLAARDFINWLIQTKITK [Co-agonist 24]
(II) HADGTFISDYSTILDKLAARDFINWLIQTKITK [Co-agonist 26]
Req: Recorded EC50 values differ for I and II ; which one is higher? Respond using the label that marks the chosen record.
Resp: I

* * *

biological target: human GLP-2 receptor (Homo sapiens, UniProt O95838); construct: host or cells: COS-7 (transient, calcium phosphate; pCMV-Script vector); experiment: cAMP accumulation assay (HitHunter cAMP XS) in transiently transfected COS-7 cells expressing the human GLP-2 receptor; type: cell-based; details: Table 1; EC50 relative to native GLP-2
Sequence (O95838 whole entry): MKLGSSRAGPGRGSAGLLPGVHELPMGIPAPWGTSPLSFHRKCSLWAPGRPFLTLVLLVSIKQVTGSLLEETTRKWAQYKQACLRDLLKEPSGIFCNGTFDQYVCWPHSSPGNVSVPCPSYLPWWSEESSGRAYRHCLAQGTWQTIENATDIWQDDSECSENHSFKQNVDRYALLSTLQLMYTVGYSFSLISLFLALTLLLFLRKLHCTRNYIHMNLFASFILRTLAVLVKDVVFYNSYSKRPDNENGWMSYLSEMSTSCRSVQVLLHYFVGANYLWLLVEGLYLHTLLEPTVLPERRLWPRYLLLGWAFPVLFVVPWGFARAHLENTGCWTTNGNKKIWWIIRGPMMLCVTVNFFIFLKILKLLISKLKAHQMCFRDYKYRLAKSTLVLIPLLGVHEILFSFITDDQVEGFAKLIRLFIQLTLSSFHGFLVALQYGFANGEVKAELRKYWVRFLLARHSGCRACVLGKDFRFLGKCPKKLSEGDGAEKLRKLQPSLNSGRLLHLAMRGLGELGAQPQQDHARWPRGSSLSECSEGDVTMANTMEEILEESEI
Ends that are not written are not given here.
Reported Metric: fold (fold change of native GLP-2), GLP-2 receptor (fold)

Consider the worked cases shown below.
{"Entry Sequence": "HAEGTFISDYSTILDNLAARDFVNWLLAQKITD [Co-agonist 9]", "Obs Value": 103}
{"Entry Sequence": "HADGTFSSDYSTILDNLAARDFINWLIQTKITD [Co-agonist 13]", "Obs Value": 9.2}
{"Entry Sequence": "HAEGTFSDEYSTILDNLAARDFINWLIQTKITD [Co-agonist 5]", "Obs Value": 5.2}

(1) HADGTFISDYSTILDNLAARDFINWLIQTKGTD [Co-agonist 16]
(2) HADGTFISEYSTILDNLAARDFINWLIQTKITD [Co-agonist 15]
Req: // which entry reports the smaller fold (fold change of native GLP-2), GLP-2 receptor, 1 or 2 ? Your choice should be expressed through its label.
Resp: 2

(A) HGDGTFISDYSTILDNLAARDFINWLIQTKITD [Co-agonist 11]
(B) HAEGTFISDMNTILDNLAARDFINWLIQTKITD [Co-agonist 6]
(C) HADGTFIDDYSTILDNLAARDFINWLIQTKITD [Co-agonist 14]
Req: // ascending sort on recorded fold (fold change of native GLP-2), GLP-2 receptor To answer, arrange all of the labels according to the requested order.
Resp: C, A, B

* * *

target: human GLP-2 receptor (Homo sapiens, UniProt O95838); construct: host or cells: COS-7 (transient, calcium phosphate; pCMV-Script vector); experiment: cAMP accumulation assay (HitHunter cAMP XS) in transiently transfected COS-7 cells expressing the human GLP-2 receptor; format: cell-based; conditions: logEC50, GLP-2 receptor, Table 2; cAMP, COS-7
pEC50: −log10 of the molar value. Ends that are not written are not given here.
Reported Metric: pEC50

{"Entry Sequence": "HADGTFISDYSTILDNLAARDFINWLIQTKGKKNDWKHNITQ [Co-agonist 34]", "Obs Value": 8.94}

(I) HADGTFISDYSTIKDNLAARDFINWLIQTKITK [Co-agonist 25]
(II) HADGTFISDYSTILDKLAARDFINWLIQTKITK [Co-agonist 26]
Req: Endpoint returns whichever of I and II has the numerically higher pEC50. Respond using the label that marks the chosen record.
Resp: II

* * *

target: human GIP receptor (Homo sapiens, UniProt P48546); construct: host or cells: COS-7 (transient, calcium phosphate; pCMV-Script vector); assay: cAMP accumulation assay (HitHunter cAMP XS) in transiently transfected COS-7 cells expressing the human GIP receptor; assay type: cell-based; conditions: Table 1; EC50 relative to native GIP
Ends that are not written are not given here.
Reported Metric: fold (fold change of native GIP), GIP receptor (fold)

Use the examples below as a reference point.
{"Entry Sequence": "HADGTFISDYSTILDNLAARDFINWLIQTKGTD [Co-agonist 16]", "Readout Unit": "fold", "Obs Value": 6.7}
{"Entry Sequence": "HAEGTFISDYSIAMDKLAARDFINWLIQTKITD [Co-agonist 7]", "Readout Unit": "fold", "Obs Value": 292}
{"Entry Sequence": "HAEGTFISDYSTILDNLAARDFINWLIQTKITDNDWKHNITQ [Co-agonist 2]", "Readout Unit": "fold", "Obs Value": 135}

(A) HAEGTFISDMNTILDNLAARDFINWLIQTKITD [Co-agonist 6]
(B) HAEGSFISDYSTILDNLAARDFINWLIQTKITD [Co-agonist 4]
Req: From the items above, decide which of A and B has the lower fold (fold change of native GIP), GIP receptor reading. // respond with label for picked entry
Resp: B

(I) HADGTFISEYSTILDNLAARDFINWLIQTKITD [Co-agonist 15]
(II) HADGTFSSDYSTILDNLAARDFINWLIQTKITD [Co-agonist 13]
Req: // which entry has the larger fold (fold change of native GIP), GIP receptor value, I or II ? API: response body contains the label of the selected item.
Resp: II

* * *

molecular target: human GIP receptor (Homo sapiens); construct: host or cells: COS-7 (transient, calcium phosphate; pCMV-Script vector); assay: cAMP accumulation assay (HitHunter cAMP XS) in transiently transfected COS-7 cells expressing the human GIP receptor; format: cell-based; conditions: COS-7, read-out: Emax (10 μM), GIP receptor
Ends that are not written are not given here.
Reported Metric: Emax at 10 µM (%)

{"Entry Sequence": "HADGTFSSDYSTILDNLAAKDFINWLIQTKITD [Co-agonist 20]", "Readout Unit": "%", "Emax at 10 µM": 98}
{"Entry Sequence": "HADGTFISDYSTILDNLKARDFINWLIQTKITK [Co-agonist 27]", "Readout Unit": "%", "Emax at 10 µM": 100}
{"Entry Sequence": "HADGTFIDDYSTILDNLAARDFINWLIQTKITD [Co-agonist 14]", "Readout Unit": "%", "Emax at 10 µM": 94}
{"Entry Sequence": "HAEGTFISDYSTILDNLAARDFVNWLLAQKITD [Co-agonist 9]", "Readout Unit": "%", "Emax at 10 µM": 100}
{"Entry Sequence": "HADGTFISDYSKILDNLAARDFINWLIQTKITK [Co-agonist 24]", "Readout Unit": "%", "Emax at 10 µM": 100}
{"Entry Sequence": "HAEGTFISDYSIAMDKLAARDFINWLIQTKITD [Co-agonist 7]", "Readout Unit": "%", "Emax at 10 µM": 92}
{"Entry Sequence": "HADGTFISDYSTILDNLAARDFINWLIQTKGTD [Co-agonist 16]", "Readout Unit": "%", "Emax at 10 µM": 95}
{"Entry Sequence": "HAEGTFISDYSTILDNIHQQDFINWLIQTKITD [Co-agonist 8]", "Readout Unit": "%", "Emax at 10 µM": 100}
{"Entry Sequence": "HVDGTFISDYSTILDNLAARDFINWLIQTKITD [Co-agonist 12]", "Readout Unit": "%", "Emax at 10 µM": 96}
{"Entry Sequence": "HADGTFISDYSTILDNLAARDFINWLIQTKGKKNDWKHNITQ [Co-agonist 34]", "Readout Unit": "%", "Emax at 10 µM": 100}
{"Entry Sequence": "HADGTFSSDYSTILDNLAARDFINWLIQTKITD [Co-agonist 13]", "Readout Unit": "%", "Emax at 10 µM": 91}
{"Entry Sequence": "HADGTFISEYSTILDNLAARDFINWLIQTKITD [Co-agonist 15]", "Readout Unit": "%", "Emax at 10 µM": 92}
{"Entry Sequence": "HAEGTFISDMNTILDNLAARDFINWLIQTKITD [Co-agonist 6]", "Readout Unit": "%", "Emax at 10 µM": 83}
{"Entry Sequence": "HAEGTFISDYSTILDNLAARDFINWLIQTKGKK [Co-agonist 10]", "Readout Unit": "%", "Emax at 10 µM": 100}
{"Entry Sequence": "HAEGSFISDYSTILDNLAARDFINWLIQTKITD [Co-agonist 4]", "Readout Unit": "%", "Emax at 10 µM": 83}

Taken from patent US11725037B2.
